Compiled from multiple publications: pIC50 readings for Histamine H1 receptor (Homo sapiens).
Worth noting: pIC50 values are minus log10 of concentrations stated in mol/L.

Illustrative cases are given below, each with its answer.
CCOC(=O)c1cc2c(s1)CCc1ccccc1C2=C1CCN(CCO)CC1    7.30
O=C(O)c1cccc(CN2CCN(C(c3ccccc3)c3ccc(F)cc3)CC2)n1 (stereo not drawn)    7.62

Hey, Histamine H1 receptor (Homo sapiens) data for O=C(O)c1cccc(CN2CCC(OC(c3ccc(F)cc3)c3ccccc3F)CC2)n1 (stereo not drawn) : pIC50 came out at 7.80

Hey, Histamine H1 receptor (Homo sapiens) data for "CN1CCC(=C2c3ccccc3CCc3sc(C(=O)NC(C)(C)CO)cc32)CC1" : pIC50 came out at 7.16

Hey, Histamine H1 receptor (Homo sapiens) data for "CCOC(=O)Nc1cc2c(s1)CCc1ccccc1C2=C1CCN(C)CC1" : pIC50 came out at 7.13

Hey, Histamine H1 receptor (Homo sapiens) data for O=C(O)c1ccnc(CN2CCC(OC(c3ccc(F)cc3)c3ccccc3F)CC2)c1 (stereo not drawn) : pIC50 came out at 7.68

Hey, Histamine H1 receptor (Homo sapiens) data for "CCCN1CCC(=C2c3cc(CC(=O)O)ccc3OCc3ccsc32)CC1" : pIC50 came out at 7.11

Hey, Histamine H1 receptor (Homo sapiens) data for "CN(C)CC/C=C1/c2cc(CC(=O)O)ccc2OCc2sccc21" : pIC50 came out at 7.36

Hey, Histamine H1 receptor (Homo sapiens) data for O=C(O)c1cncc(CN2CCC(OC(c3ccccc3)c3ccc(F)cc3)CC2)c1 (stereo not drawn) : pIC50 came out at 7.68
